Molecular target: récepteurs histaminiques H2 (Cavia porcellus, UniProt P47747)
Sequence (P47747 whole entry): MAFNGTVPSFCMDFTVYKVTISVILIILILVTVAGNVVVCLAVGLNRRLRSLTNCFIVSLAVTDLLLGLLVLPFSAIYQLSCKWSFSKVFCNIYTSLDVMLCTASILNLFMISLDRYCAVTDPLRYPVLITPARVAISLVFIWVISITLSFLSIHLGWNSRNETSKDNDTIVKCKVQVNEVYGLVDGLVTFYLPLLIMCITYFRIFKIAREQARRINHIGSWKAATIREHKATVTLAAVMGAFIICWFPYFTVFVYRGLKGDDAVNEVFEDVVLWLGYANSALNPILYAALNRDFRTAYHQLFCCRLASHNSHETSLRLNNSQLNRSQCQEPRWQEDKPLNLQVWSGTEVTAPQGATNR
Test: Isolated guinea-pig atrium (histamine chronotropic effect, H2 blockade)
Measurement Type: Kb (nM)

(1) CNC(=C[N+](=O)[O-])NCCCOc1cccc2c1CCN(C)C2 [Composé A, reference compound]
(2) CCCCCN1Cc2cc(CSCCNC(=C[N+](=O)[O-])NC)sc2C1
(3) COCCN1Cc2cc(CSCCNc3n[s+]([O-])nc3N)sc2C1 (centres unmarked)
Quick one: which order do the items above go in by Kb, smallest to largest? Return the labels ranked in the requested order, please.
3, 2, 1
(3: 49 nM, 2: 89.1 nM, 1: 1320 nM)
